- SYSTEM TESTED: Jun bZIP K273A;Fos bZIP R144A (human;human, UniProt P05412;P01100 252-315;137-200, K273A|R144A)
- Sequence (P05412 252-315 K273A, chain 1 of 2): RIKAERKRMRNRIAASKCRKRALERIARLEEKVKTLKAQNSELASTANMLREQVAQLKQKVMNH
- Sequence (P01100 137-200 R144A, chain 2 of 2): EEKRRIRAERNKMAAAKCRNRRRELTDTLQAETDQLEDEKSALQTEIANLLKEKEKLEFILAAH
- METHOD NOTES: ITC
ASSAY READOUT: pKd
Interpret pKd as the negative base-10 log of the concentration measured in mol/L.

Lab note: measured pKd of TRE duplex 15-mer (dsDNA) DNA 1: CGCGTGACTCACCCC DNA 2: GGGGTGAGTCACGCG was 5.44
